The values you see were collected from patent US20020146750A1.

- Target Or Test System: T1, MUC1 60-mer peptide NH2-(…)3-COOH (biotinylated in the ELISAs and selections)
- T1 construct: also called biotinylated MUC1 60-mer
- T1 sequence (peptide, as listed by the source): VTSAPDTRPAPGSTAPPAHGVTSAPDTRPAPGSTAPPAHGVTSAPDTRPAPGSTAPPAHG
- Test Description: ELISA, soluble Fab, biotinylated MUC1 60-mer; relative signal
Experimental Endpoint: binding result

10B3 (Fab, V domains shown, PH1 Fab variant) VH: QVQLVQSGGGLVQPGGSLRLSCAASGFTFRSNAMGWVRQAPGKGLEWVSGISGSGGSTYYADSVKGRFTISRDNSKNTLYLQMNSLRAEDTAVYYCAKHTGGGVWDPIGYWGQGTLVTVSS VL: EIVLTQSPLSLPVTPGEPASISCRSSQSLLHSNGYTYLDWYLQKPGQSPQLLIYSGSHRASGVPDRFSGSVSGTDFTLRISRVEAEDVGVYYCMQGLQSPFTFGPGTKVDIKR
binds
3D1 (Fab, V domains shown, PH1 Fab variant) VH: QVQLVQSGGGLVQPGGSLRLSCAASGFTFRSNAMGWVRQAPGKGLEWVSGISGSGGSTYYADSVKGRFTISRDNSKNTLYLQMNSLRAEDTAVYYCAQHTGGGVWDPIGYWGQGTLVTVSS VL: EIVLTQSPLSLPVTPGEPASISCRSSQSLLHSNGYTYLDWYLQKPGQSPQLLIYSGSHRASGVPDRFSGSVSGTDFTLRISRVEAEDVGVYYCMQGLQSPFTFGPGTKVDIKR
binds
3E2 (Fab, V domains shown, PH1 Fab variant) VH: QVQLVQSGGGLVQPGGSLRLSCAASGFTFRSNAMGWVRQAPGKGLEWVSGISGSGGSTYYADSVKGRFTISRDNSKNTLYLQMNSLRAEDTAVYYCAKHTGGGVWDPIAYWGQGTLVTVSS VL: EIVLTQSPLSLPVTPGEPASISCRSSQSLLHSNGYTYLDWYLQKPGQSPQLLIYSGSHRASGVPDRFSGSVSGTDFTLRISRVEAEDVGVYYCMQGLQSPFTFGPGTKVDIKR
binds
